target-of-assay: beta-catenin (Homo sapiens)
Construct: made in house; host or cells: E. coli BL21 (DE3) pLysS
Sequence (P35222 134-665): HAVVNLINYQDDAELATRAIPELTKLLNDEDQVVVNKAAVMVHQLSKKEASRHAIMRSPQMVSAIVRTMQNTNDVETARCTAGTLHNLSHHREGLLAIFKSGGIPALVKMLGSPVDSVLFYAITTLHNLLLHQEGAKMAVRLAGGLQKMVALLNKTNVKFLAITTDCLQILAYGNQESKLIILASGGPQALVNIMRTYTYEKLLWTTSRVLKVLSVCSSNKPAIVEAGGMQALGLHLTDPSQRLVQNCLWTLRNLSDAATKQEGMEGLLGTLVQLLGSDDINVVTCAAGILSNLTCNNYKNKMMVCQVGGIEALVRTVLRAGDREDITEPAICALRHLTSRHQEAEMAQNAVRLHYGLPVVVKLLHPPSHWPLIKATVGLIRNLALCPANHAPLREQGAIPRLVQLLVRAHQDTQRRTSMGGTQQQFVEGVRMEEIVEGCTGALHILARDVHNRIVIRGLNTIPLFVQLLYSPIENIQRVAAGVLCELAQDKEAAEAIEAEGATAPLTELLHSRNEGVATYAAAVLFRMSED
procedure-summary: Phage Library Screening with NGS, beta-catenin
Format: binding
condition: beta-catenin target concentration 300; no competitor
Param threshold (30) applies to Target Concentration 300 (phage screen NGS readout); output TRUE when value >= threshold, FALSE when value < threshold.

Could you tell me if the measured Target Concentration 300 (phage screen NGS readout) of DPAEAICILAAHECWWD reaches 30 or more?
TRUE

Could you tell me if the measured Target Concentration 300 (phage screen NGS readout) of DPAILDCQLAAMDCSTW reaches 30 or more?
FALSE

Could you tell me if the measured Target Concentration 300 (phage screen NGS readout) of DPAESDCILAAYICYVE reaches 30 or more?
TRUE

Could you tell me if the measured Target Concentration 300 (phage screen NGS readout) of DPADWICEHAALTCQEF reaches 30 or more?
FALSE

Could you tell me if the measured Target Concentration 300 (phage screen NGS readout) of DPAILNCHMAAWDCNFY reaches 30 or more?
TRUE

Could you tell me if the measured Target Concentration 300 (phage screen NGS readout) of DPAILDCQLAAIDCVYT reaches 30 or more?
TRUE

Could you tell me if the measured Target Concentration 300 (phage screen NGS readout) of DPAVHRCFWAAEHCDLI reaches 30 or more?
TRUE

Could you tell me if the measured Target Concentration 300 (phage screen NGS readout) of DPATIRCYEAAFMCQYW reaches 30 or more?
TRUE

Could you tell me if the measured Target Concentration 300 (phage screen NGS readout) of DPAHWHCEHAALLCASV reaches 30 or more?
TRUE

Could you tell me if the measured Target Concentration 300 (phage screen NGS readout) of DPADEDCILAAHVCRHF reaches 30 or more?
FALSE

Could you tell me if the measured Target Concentration 300 (phage screen NGS readout) of DPAQSDCDWAAEHCNLI reaches 30 or more?
FALSE

Could you tell me if the measured Target Concentration 300 (phage screen NGS readout) of DPAQNICEWAALHCDLI reaches 30 or more?
TRUE

Could you tell me if the measured Target Concentration 300 (phage screen NGS readout) of DPAELACEWAAIHCELV reaches 30 or more?
TRUE

Could you tell me if the measured Target Concentration 300 (phage screen NGS readout) of DPAMVTCYEAAYVCQYF reaches 30 or more?
FALSE

Could you tell me if the measured Target Concentration 300 (phage screen NGS readout) of DPADTECILAAHFCHYF reaches 30 or more?
TRUE

Could you tell me if the measured Target Concentration 300 (phage screen NGS readout) of DPAEAECILAAHICNIS reaches 30 or more?
TRUE

Could you tell me if the measured Target Concentration 300 (phage screen NGS readout) of DPAQQDCTLAAHVCRVF reaches 30 or more?
FALSE

Could you tell me if the measured Target Concentration 300 (phage screen NGS readout) of DPAEVECMLAAHVCRAF reaches 30 or more?
TRUE

Could you tell me if the measured Target Concentration 300 (phage screen NGS readout) of DPAILNCHVAAWNCHSF reaches 30 or more?
FALSE

Could you tell me if the measured Target Concentration 300 (phage screen NGS readout) of DPAEWDCMHAALICEVH reaches 30 or more?
TRUE

Could you tell me if the measured Target Concentration 300 (phage screen NGS readout) of DPAHWSCEWAAEHCRLI reaches 30 or more?
TRUE

Could you tell me if the measured Target Concentration 300 (phage screen NGS readout) of DPAEWQCEHAALLCEQQ reaches 30 or more?
TRUE

Could you tell me if the measured Target Concentration 300 (phage screen NGS readout) of DPAVFECSLAAIDCLQI reaches 30 or more?
FALSE

Could you tell me if the measured Target Concentration 300 (phage screen NGS readout) of DPAFLTCHIAAWACSEQ reaches 30 or more?
FALSE

Could you tell me if the measured Target Concentration 300 (phage screen NGS readout) of DPAEADCMMAAHICSNI reaches 30 or more?
FALSE

Could you tell me if the measured Target Concentration 300 (phage screen NGS readout) of DPAILECHVAALDCQMW reaches 30 or more?
TRUE

Could you tell me if the measured Target Concentration 300 (phage screen NGS readout) of DPAVFMCYEAAFECQYF reaches 30 or more?
FALSE

Could you tell me if the measured Target Concentration 300 (phage screen NGS readout) of DPAEWICEHAALLCSVL reaches 30 or more?
TRUE

Reference source: patent US20240376151A1
